Values from PubChem BioAssay (Tox21)

Test: qHTS assay to identify small molecule antagonists of the estrogen receptor alpha (ER-alpha) signaling pathway using the BG1 cell line - cell viability counter screen (AID 743081);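 note: compound given together with 17beta-estradiol as the ER stimulus; nearly all actives have a fitted effect of over 45% in size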
Conditions: BG1Luc4E2 viability, CellTiter-Fluor, 22 h; series mostly up to 70.3 µM
Results filed as inconclusive are left out. Activity calls are given as the source filed them. Calls come from the whole dose curve; as a rule, active = well fitted cell-killing curve with a large enough effect in the repeat runs; inconclusive = weak or mixed curves, or effect the other way; inactive = flat fitted curve, though single readings scatter.
One label from this list, please: active, inactive

Past entries and their recorded results:
CC1(C)CCC(C)(C)c2cc(C(=O)Nc3ccc(C(=O)O)cc3)ccc21 ... inactive
CC(C)OC(=O)c1cc2c(OCC(O)CNC(C)(C)C)cccc2[nH]1 (stereo not drawn) ... inactive
CCC(Cl)C(Cl)C(Cl)CC(Cl)C(Cl)C(C)Cl (stereo not drawn) ... inactive
CCC(C)Nc1ccc(NC(C)CC)cc1 (stereo not drawn) ... active
Cc1ccc2oc(CN(Cc3ccccc3)C(=O)Nc3c(F)cc(F)cc3F)c(-c3ccc(Cl)cc3)c2c1 ... inactive
COCCCC/C(=N\OCCN)c1ccc(C(F)(F)F)cc1 ... inactive
CCCCCCCCOC(=O)c1ccc(O)cc1 ... inactive
CCCN(CCC)C(=O)C(CCC(=O)OCCCN1CCN(CCOC(=O)Cc2c(C)n(C(=O)c3ccc(Cl)cc3)c3ccc(OC)cc23)CC1)NC(=O)c1ccccc1 (stereo not drawn) ... inactive

### Prompt Field: outcome | Entry: `C/C=C1/C(=O)C[C@H]2[C@@H]3CCC4=CC(=O)CC[C@]4(C)[C@H]3CC[C@]12C`
### Response inactive

### Prompt Field: outcome | Entry: `Cc1cc(N)c(S(=O)(=O)O)cc1Cl`
### Response inactive

### Prompt Field: outcome | Entry: `NNC(=O)c1cccc(C(=O)NN)c1`
### Response inactive

### Prompt Field: outcome | Entry: `CCC(N)(CO)CO`
### Response inactive

### Prompt Field: outcome | Entry: `CCN(CC)CCNC(=O)c1c(C)[nH]c(/C=C2\C(=O)Nc3ccc(F)cc32)c1C`
### Response active

### Prompt Field: outcome | Entry: `COc1ccc(C(=O)/C(Br)=C\C(=O)O)cc1`
### Response inactive

### Prompt Field: outcome | Entry: `On1ccccc1=S`
### Response inactive
